Measured pKi by item
target: DDR2 (Homo sapiens); assay: DDR2 LanthaScreen Europium Kinase Binding assay; details: binding affinity; IC50 converted in Ki using Cheng-Prusoff; read-out: Ki DDR2
Sequence (Q16832 22-855): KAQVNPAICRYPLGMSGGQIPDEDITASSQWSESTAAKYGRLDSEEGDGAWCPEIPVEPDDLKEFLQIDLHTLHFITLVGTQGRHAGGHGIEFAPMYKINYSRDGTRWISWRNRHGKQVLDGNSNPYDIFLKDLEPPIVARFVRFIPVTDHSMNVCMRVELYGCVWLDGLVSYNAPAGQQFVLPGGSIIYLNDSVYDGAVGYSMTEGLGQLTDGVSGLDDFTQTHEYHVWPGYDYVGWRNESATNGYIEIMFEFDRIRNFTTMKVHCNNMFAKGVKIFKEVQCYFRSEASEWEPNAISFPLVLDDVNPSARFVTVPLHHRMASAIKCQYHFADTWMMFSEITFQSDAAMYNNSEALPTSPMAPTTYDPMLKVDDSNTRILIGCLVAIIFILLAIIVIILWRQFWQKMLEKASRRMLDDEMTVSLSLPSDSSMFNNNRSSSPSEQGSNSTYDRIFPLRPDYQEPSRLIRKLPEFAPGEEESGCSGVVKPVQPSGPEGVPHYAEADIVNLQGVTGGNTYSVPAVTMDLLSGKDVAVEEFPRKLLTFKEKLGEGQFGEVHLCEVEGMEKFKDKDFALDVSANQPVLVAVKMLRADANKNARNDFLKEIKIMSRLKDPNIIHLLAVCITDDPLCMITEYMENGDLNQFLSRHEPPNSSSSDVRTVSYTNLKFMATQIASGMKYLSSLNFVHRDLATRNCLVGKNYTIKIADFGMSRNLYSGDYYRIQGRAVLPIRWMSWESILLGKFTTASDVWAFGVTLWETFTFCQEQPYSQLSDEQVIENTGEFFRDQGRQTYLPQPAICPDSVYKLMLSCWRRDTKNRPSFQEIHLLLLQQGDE
pKi: −log10 of the molar value.

| compound | pKi |
| --- | --- |
| Cn1nc(NC(=O)c2ccc3c(c2)N(Cc2cnc4cnccn24)CC3)cc1C(C)(C)C [Example 87] | > 7.60 |
| Cc1n[nH]c2ncc(CN3CCc4ccc(C(=O)Nc5cc(CN6CCN(C)CC6)cc(C(F)(F)F)c5)cc43)cc12 [Example 68] | > 7.60 |
| CC(C)(c1cc(NC(=O)c2ccc3c(c2)N(Cc2cnc4cnccn24)CC3)no1)C(F)(F)F [Example 45] | > 7.60 |
| Cc1cn(-c2cc(C(=O)Nc3ccc4c(c3)N(C(=O)c3cnc5cnccn35)CC4)cc(C(F)(F)F)c2)cn1 [Example 20] | > 7.60 |
| O=C(Nc1cc(CN2CCOCC2)cc(C(F)(F)F)c1)c1ccc2c(c1)N(Cc1cnc3cnccn13)CC2 [Example 49] | > 7.60 |
| Cc1cn(-c2cc(C(=O)Nc3ccc4c(c3)N(Cc3cnc5[nH]ncc5c3)CC4)cc(C(F)(F)F)c2)cn1 [Example 38] | > 7.60 |
| O=C(Nc1cc(F)cc(C(F)(F)F)c1)c1ccc2c(c1)N(Cc1cnc3cnccn13)CC2 [Example 41] | > 7.60 |
| Cc1n[nH]c2ncc(CN3CCc4ccc(C(=O)Nc5cc(CN6CCN(C)CC6)nc(C(F)(F)F)c5)cc43)cc12 [Example 81] | > 7.60 |
| O=C(Nc1cc(F)cc(OC(F)(F)F)c1)c1ccc2c(c1)N(Cc1cnc3cnccn13)CC2 [Example 44] | > 7.60 |
| Cc1cn(-c2cc(NC(=O)c3ccc4c(c3)N(Cc3cnc5ccccn35)CC4C)cc(C(F)(F)F)c2)cn1 (stereo not drawn) [Example 25] | 7.30 to 7.60 |
| Cc1cn(-c2cc(NC(=O)c3ccc4c(c3)N(C(=O)c3cnc5[nH]ncc5c3)CC4C)cc(C(F)(F)F)c2)cn1 (stereo not drawn) [Example 28] | 7.30 to 7.60 |
| CC1CN(Cc2cnc3[nH]ccc3c2)c2cc(C(=O)Nc3cccc(C(F)(F)F)c3)ccc21 (stereo not drawn) [Example 32] | 7.30 to 7.60 |
| O=C(Nc1cccc(OC(F)(F)F)c1)c1ccc2c(c1)N(Cc1ccc3[nH]cnc3c1)CC2 [Example 61] | 7.30 to 7.60 |
| Cc1cn(-c2cc(NC(=O)c3ccc4c(c3)N(Cc3cnc5[nH]ccc5c3)CC4)cc(C(F)(F)F)c2)cn1 [Example 2] | > 7.60 |
| CN(C)Cc1ccc(NC(=O)c2ccc3c(c2)N(Cc2cnc4cnccn24)CC3)cc1C(F)(F)F [Example 48] | > 7.60 |
